Assay system: UniProtKB P21453
Assay overview: Tango β-arrestin Recruitment Assay in U2OS cells (Assay 2b)
Assay type: cell-based
Design: linker with TEV protease (N1a) cleavage site (C)
Applied conditions: Tango β-arrestin Recruitment Assay, relative EC50 was measured (footnote 1), read-out: Assay 2b Relative EC50
pEC50: −log10 of the molar value.
Readout label: pEC50

Look at this molecule and give its reported pEC50. `CC(C)(CO)Oc1cc(Cl)c(-c2noc(-c3cn4cc(C(F)(F)F)cc(Cl)c4n3)n2)cc1Cl`
6.30 to 7.00

----------
Catalogue of pEC50 readings, one per entry.
Assay system: S1P1 (Homo sapiens, UniProt P21453)
Sequence (P21453 whole entry): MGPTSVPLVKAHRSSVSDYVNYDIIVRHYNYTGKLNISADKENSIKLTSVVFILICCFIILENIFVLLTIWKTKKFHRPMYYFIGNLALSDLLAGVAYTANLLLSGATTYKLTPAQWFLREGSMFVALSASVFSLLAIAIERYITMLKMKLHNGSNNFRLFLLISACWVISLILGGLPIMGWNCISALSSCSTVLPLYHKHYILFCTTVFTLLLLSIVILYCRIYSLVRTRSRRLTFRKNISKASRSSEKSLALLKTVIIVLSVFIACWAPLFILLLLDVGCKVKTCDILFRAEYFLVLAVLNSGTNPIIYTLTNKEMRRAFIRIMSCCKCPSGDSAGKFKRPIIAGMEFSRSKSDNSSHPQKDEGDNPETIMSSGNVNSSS
Sequence (P32121 whole entry partner): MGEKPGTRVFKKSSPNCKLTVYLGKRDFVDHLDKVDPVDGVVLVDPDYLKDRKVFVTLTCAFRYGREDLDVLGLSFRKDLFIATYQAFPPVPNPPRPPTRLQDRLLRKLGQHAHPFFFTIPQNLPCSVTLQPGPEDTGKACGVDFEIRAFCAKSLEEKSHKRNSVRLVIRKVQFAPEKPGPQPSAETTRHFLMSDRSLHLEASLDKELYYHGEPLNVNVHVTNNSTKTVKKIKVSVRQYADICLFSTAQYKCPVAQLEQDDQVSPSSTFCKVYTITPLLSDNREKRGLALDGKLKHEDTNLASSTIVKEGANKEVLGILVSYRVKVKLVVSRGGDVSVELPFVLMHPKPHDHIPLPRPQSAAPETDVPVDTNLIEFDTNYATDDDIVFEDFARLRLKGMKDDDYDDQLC
Assay overview: Tango β-arrestin Recruitment Assay in HEK293 cells (Assay 2a)
Format: cell-based
Design: linker with TEV protease (N1a) cleavage site (C); host or cells: HEK293, transiently transfected
Applied conditions: Tango β-arrestin Recruitment Assay, read-out: Assay 2a EC50
pEC50: −log10 of the molar value.

O=C(O)CCNCc1ccc(-c2noc(-c3cn4cc(C(F)(F)F)cc(Cl)c4n3)n2)c(Cl)c1: 6.30 to 7.00

Look at this molecule and give its reported pEC50. `CC(C)(O)COc1cc(Cl)c(-c2noc(-c3cn4cc(C(F)(F)F)cc(Br)c4n3)n2)cc1Cl`
≥ 7.00

Look at this molecule and give its reported pEC50. `O=C(O)CCc1cc(Cl)c(-c2noc(-c3cn4cc(Br)cc(Cl)c4n3)n2)cc1F`
≥ 7.00

Look at this molecule and give its reported pEC50. `CC(=O)OCCOc1c(Cl)cc(-c2noc(-c3cn4cc(C(F)(F)F)cc(Cl)c4n3)n2)cc1Cl`
6.30 to 7.00
